Target: COX II (Homo sapiens, UniProt P35354)
Sequence (P35354 18-604): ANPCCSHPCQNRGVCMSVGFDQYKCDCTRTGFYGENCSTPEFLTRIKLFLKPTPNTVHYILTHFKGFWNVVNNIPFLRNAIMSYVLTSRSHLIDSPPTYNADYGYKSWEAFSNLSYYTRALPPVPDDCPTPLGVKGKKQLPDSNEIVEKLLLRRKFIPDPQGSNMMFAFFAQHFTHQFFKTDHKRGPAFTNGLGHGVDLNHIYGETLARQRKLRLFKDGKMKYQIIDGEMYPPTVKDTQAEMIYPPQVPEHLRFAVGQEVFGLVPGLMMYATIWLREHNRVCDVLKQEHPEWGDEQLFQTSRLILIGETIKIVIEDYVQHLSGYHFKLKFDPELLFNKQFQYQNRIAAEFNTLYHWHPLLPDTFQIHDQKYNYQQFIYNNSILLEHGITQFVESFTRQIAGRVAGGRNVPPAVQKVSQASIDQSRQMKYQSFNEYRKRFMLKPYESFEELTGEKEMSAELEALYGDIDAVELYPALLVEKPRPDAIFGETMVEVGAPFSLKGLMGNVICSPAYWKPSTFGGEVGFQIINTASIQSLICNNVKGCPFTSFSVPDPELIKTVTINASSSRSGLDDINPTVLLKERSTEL
Assay: radiometric assay, COX II inhibition (human recombinant, baculovirus expressed, partially purified)
Format: biochemical
Design: A 1.8 Kb DNA fragment containing the coding region of human COX II was generated by PCR; made in house; host or cells: Sf9 insect cells, baculovirus
Conditions: radiometric assay, human recombinant baculovirus expressed enzyme; read-out: COX II IC50 (Table 2)
observable: IC50 (nM)

{"columns": ["compound", "IC50, nM"],
 "data": [
  ["Cc1cc(Cc2ccc(=O)n(CCCO)n2)n(C)c1C(=O)c1ccc(Cl)cc1 [Compound 140]", 530],
  ["Cc1cc(Cc2ccc(=O)n(Cc3c(Cl)cccc3Cl)n2)n(C)c1C(=O)c1ccc(Cl)cc1 [Compound 152]", 140],
  ["Cc1ccc(C(=O)c2cc(Cl)c(Cc3ccc(=O)[nH]n3)n2C)cc1 [Compound 87]", 900],
  ["CC[C@H](C)NC(=O)Cn1nc(Cc2cc(C)c(C(=O)c3ccc(Cl)cc3)n2C)ccc1=O [Compound 157]", 1630],
  ["COc1ccc(Cn2nc(Cc3cc(C)c(C(=O)c4ccc(Cl)cc4)n3C)ccc2=O)cc1 [Compound 168]", 910]
]}

A = Cc1ccc(C(=O)c2ccc(CC3=NNC(=O)CC3)n2C)cc1 [Compound 102]
B = CNC(=O)Cn1nc(Cc2cc(C)c(C(=O)c3ccc(Cl)cc3)n2C)ccc1=O [Compound 125]
Prompt: // pick min by IC50: A , B Let me know the label of the one you choose.
Response: B
(B: 1600 nM, A: 3100 nM)
